Answer each item with its documented pIC50.
Target: Sodium/glucose cotransporter 1 (Homo sapiens, UniProt P13866)
Sequence (P13866 whole entry): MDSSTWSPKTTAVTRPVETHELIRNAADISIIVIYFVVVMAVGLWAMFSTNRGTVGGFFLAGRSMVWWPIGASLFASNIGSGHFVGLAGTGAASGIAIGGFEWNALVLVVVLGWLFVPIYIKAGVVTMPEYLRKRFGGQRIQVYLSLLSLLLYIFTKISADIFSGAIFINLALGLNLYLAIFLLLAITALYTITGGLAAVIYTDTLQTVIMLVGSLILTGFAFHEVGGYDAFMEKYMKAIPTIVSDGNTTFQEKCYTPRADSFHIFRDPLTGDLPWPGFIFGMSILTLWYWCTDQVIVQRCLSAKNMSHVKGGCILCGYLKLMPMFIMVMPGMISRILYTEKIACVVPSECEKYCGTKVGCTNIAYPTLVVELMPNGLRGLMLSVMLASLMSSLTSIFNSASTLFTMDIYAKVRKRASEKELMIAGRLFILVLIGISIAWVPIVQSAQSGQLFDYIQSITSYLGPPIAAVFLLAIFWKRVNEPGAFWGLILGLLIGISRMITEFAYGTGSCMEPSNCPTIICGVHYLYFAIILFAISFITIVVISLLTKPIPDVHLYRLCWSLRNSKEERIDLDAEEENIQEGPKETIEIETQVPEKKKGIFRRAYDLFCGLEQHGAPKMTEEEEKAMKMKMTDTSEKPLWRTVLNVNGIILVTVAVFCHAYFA
Assay: Inhibition of human SGLT1 expressed in CHOK1 cells assessed as reduction in Na-dependent [14C]-methyl-alpha-D-glucopyranoside uptake after 30 mins by microbeta counting method
Answers are plain numbers, as −log10 of the molar value.

input_smiles=Cc1cc(O)c([C@@H]2O[C@H](CO)[C@@H](O)[C@H](O)[C@H]2O)cc1Cc1ccc(CCCC(=O)NC(C)(CO)CO)cc1 endpoint_result=7.49
input_smiles=Cc1cc(O)c([C@@H]2O[C@H](CO)[C@@H](O)[C@H](O)[C@H]2O)cc1Cc1ccc(CCCNC(=O)N2CCN(C)CC2)cc1 endpoint_result=6.12
input_smiles=Cc1cc(O)c([C@@H]2S[C@H](CO)[C@@H](O)[C@H](O)[C@H]2O)cc1Cc1ccc(CCCC(=O)NC(CO)(CO)CO)cc1 endpoint_result=7.46
input_smiles=CCOc1ccc(Cc2cc([C@@H]3S[C@H](CO)[C@@H](O)[C@H](O)[C@H]3O)c(O)cc2C)cc1 endpoint_result=6.79
input_smiles=Cc1cc(O)c([C@@H]2S[C@H](CO)[C@@H](O)[C@H](O)[C@H]2O)cc1Cc1ccc(CCCC(=O)NC(C)(C)C(N)=O)cc1 endpoint_result=7.33
input_smiles=Cc1cc(O)c([C@@H]2O[C@H](CO)[C@@H](O)[C@H](O)[C@H]2O)cc1Cc1ccc(CCCC(=O)NC(CO)(CO)CO)cc1 endpoint_result=7.46

Attention now shifts to the item below.
Could you share which pIC50 value was measured for COc1ccc(Cc2cc([C@@H]3S[C@H](CO)[C@@H](O)[C@H](O)[C@H]3O)c(O)cc2C)cc1 ?
7.19

###

assay: Cmax in Sprague-Dawley rat at 1 mg/kg, po administered as single dose by LC-MS analysis; format: ADME, organism-based; parameters: dose 1 mg/kg, route oral; conditions: in vivo
readout: Cmax (ng/mL)
Give bare numbers, in ng/mL.

Could you share which Cmax value was measured for Cc1cc(O)c([C@@H]2O[C@H](CO)[C@@H](O)[C@H](O)[C@H]2O)cc1Cc1ccc(CCNC(=O)NC(CO)(CO)CO)cc1 ?
1.46

meta.source: ChEMBL document CHEMBL4265985
